# assaySystem: yNhp6A (Saccharomyces cerevisiae, UniProt P11632 1-93)
# Sequence (P11632 whole entry): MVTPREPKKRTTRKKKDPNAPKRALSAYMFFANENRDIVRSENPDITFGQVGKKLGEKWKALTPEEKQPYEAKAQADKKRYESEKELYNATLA
# measurementProtocol: smFRET
readoutKind: Kd

                                     binder  readoutkind  result
0  linear_18a (dsDNA) DNA 1: TGGCGACGGCAGCGAGGC DNA 2: GCCTCGCTGCCGTCGCCATTTTTTTTTTTTTTT           Kd   ~1 nM
